All values here come from patent US20220213030A1.

Mean fold changes (VPS35 levels normalized on β-Actin, over vehicle-treated cells) overview
# test.target: VPS35 (Mus musculus, UniProt Q9EQH3+Q9QZ88)
# test: VPS35 levels in Neuro2a cells by Western blot (screening of amino guanidine hydrazones)
# Assay type: cell-based
# Parameters: endogenous in cells; host or cells: Neuro2a
# test.settings: 10 μM, 48 hours, independent cultures n=3
Give a plain numeric answer without units written out.

[Q] // lookup Mean fold changes (VPS35 levels normalized on β-Actin, over vehicle-treated cells) for `CCCCNC(=N)NN=Cc1cc(C=NNC(=N)NCCCC)cc(NC(=O)c2ccc(C)cc2)c1`
[A] 0.625

[Q] What value of Mean fold changes (VPS35 levels normalized on β-Actin, over vehicle-treated cells) has been reported for the following compound? `CCCCOc1ccc(C=NNC(=N)N)cc1C=NNC(=N)N`
[A] 1.415

[Q] I would be grateful if you could share the reported Mean fold changes (VPS35 levels normalized on β-Actin, over vehicle-treated cells) for `COC(=O)c1cc(C=NNC(=N)N)cc(C=NNC(=N)N)c1` .
[A] 1.582

[Q] I'd like to know its Mean fold changes (VPS35 levels normalized on β-Actin, over vehicle-treated cells). The compound in question is `COc1ccc(C=NNC(=N)N)cc1C=NNC(=N)N`
[A] 2.070

[Q] Can you look up the measured Mean fold changes (VPS35 levels normalized on β-Actin, over vehicle-treated cells) of `Cc1cc(C=NNC(=N)N)cc(C=NNC(=N)N)c1` for me?
[A] 2.080

[Q] Give its Mean fold changes (VPS35 levels normalized on β-Actin, over vehicle-treated cells) value. Item: `C(=NNc1nc2ccccc2[nH]1)c1cccc(C=NNc2nc3ccccc3[nH]2)c1`
[A] 1.105

[Q] Name the reported Mean fold changes (VPS35 levels normalized on β-Actin, over vehicle-treated cells) value associated with the compound `Cc1ccc(S(=O)(=O)Nc2cc(C=NNC(=N)N)cc(C=NNC(=N)N)c2)cc1`
[A] 1.501

[Q] Need Mean fold changes (VPS35 levels normalized on β-Actin, over vehicle-treated cells), item N=C(N)NN=Cc1cccc(C=NNC(=N)N)c1 [Compound 2a, 1,3-Bis-amino guanidine phenyl hydrazone]
[A] 1.951

[Q] Endpoint output: Mean fold changes (VPS35 levels normalized on β-Actin, over vehicle-treated cells) of `CC(=O)Nc1cc(C=NNC(=N)N)cc(C=NNC(=N)N)c1` . Value?
[A] 1.660

[Q] Find the recorded Mean fold changes (VPS35 levels normalized on β-Actin, over vehicle-treated cells) belonging to `N=C(NN=Cc1cccc(C=NNC(=N)N2CCCC2)c1)N1CCCC1` and report it.
[A] 1.978

[Q] Requested field: Mean fold changes (VPS35 levels normalized on β-Actin, over vehicle-treated cells). Item: `COc1cc(C=NNC(=N)N)cc(C=NNC(=N)N)c1`
[A] 1.310

[Q] Need Mean fold changes (VPS35 levels normalized on β-Actin, over vehicle-treated cells) of `N=C(N)NN=Cc1cccc(C=NNC(=N)N)c1Br` , thanks.
[A] 1.300

[Q] What measured Mean fold changes (VPS35 levels normalized on β-Actin, over vehicle-treated cells) goes with C/C(=N\NC(=N)N)c1cccc(/C(C)=N/NC(=N)N)c1 [Compound (VIII), reference compound] ?
[A] 0.600

[Q] Need Mean fold changes (VPS35 levels normalized on β-Actin, over vehicle-treated cells), item `CS(=O)(=O)Nc1cc(C=NNC(=N)N)cc(C=NNC(=N)N)c1`
[A] 1.280
